Values compiled from patent US11613750B2.

- System: HCoV-OC43
- assay_procedure: OC43 virion RNA, Branched DNA assay, infected HCT8 cells
- Format: cell-based, human coronavirus OC43
- measurement_context: 10 nM siRNA along with 10 nM of siRNA targeting GRP78, HCT8 cells
Hi there, I'd appreciate the recorded OC43 vRNA reduction siRNA and siGRP78 for every entry that follows.
Give bare numbers, in %.

Below: 2 substances and their reported OC43 vRNA reduction siRNA and siGRP78.
substance	quantitative_result
28 (UAUGGCCUCUGUCUCCGAGCUUUAGCUCGGAGACAGAGGCCAUAUU; siRNA; Self-complementary hairpin strand, chemistry not given here, further chemistry not given here; listed as Homo sapiens) [compound 28]	71
48 (GCGCCAAGGACAUCAAGAATTUUCUUGAUGUCCUUGGCGCAA; siRNA; Self-complementary hairpin strand, chemistry not given here, further chemistry not given here; listed as Homo sapiens) [compound 48]	88

Record OC43 vRNA reduction siRNA and siGRP78 per entry; entries follow.
1. 36 (CCUUUUUGAUUAAAUUCCUGCTTAGGAAUUUAAUCAAAAAGGCCTT; siRNA; Self-complementary hairpin strand, chemistry not given here, further chemistry not given here; listed as Homo sapiens) [compound 36]
2. 30 (AGGAUAAGAUCAAUGCCCUUCUUGAAGGGCAUUGAUCUUAUCCUUU; siRNA; Self-complementary hairpin strand, chemistry not given here, further chemistry not given here; listed as Homo sapiens) [compound 30]

Out:
1. 87
2. 84

====

- Tested on: HCoV-OC43
- assay_procedure: OC43 virion RNA, Branched DNA assay, infected HCT8 cells
- Format: cell-based, human coronavirus OC43
- measurement_context: 10 nM siRNA along with 10 nM of siRNA targeting GRP78, HCT8 cells
parameter: OC43 vRNA reduction siRNA and siGRP78 (%)
Give bare numbers, in %.

substance	parameter	quantitative_result
38 (AGUGUACCUGCUGGUGGGGCUUUAGCCCCACCAGCAGGUACACUUU; siRNA; Self-complementary hairpin strand, chemistry not given here, further chemistry not given here; listed as Homo sapiens) [compound 38]	OC43 vRNA reduction siRNA and siGRP78	61

In: Which measured OC43 vRNA reduction siRNA and siGRP78 value corresponds to 37 (CUGAAUGGAAAAAACAUUGAAUUUUCAAUGUUUUUUCCAUUCAGUU; siRNA; Self-complementary hairpin strand, chemistry not given here, further chemistry not given here; listed as Homo sapiens) [compound 37] ?
Out: 88

====

- Test system: HCoV-OC43
- assay_procedure: OC43 virion RNA, Branched DNA assay, infected HCT8 cells
- Assay type: cell-based, human coronavirus OC43
- measurement_context: 10 nM siRNA along with 10 nM of siRNA targeting GRP78, HCT8 cells
parameter: OC43 vRNA reduction siRNA and siGRP78 (%)
Give bare numbers, in %.

Below: 3 substances and their reported OC43 vRNA reduction siRNA and siGRP78.
substance	system_name	OC43 vRNA reduction siRNA and siGRP78, %
31 (UUUGGCCUGGCUUGUUUGCAAUUUUGCAAACAAGCCAGGCCAAAUU; siRNA; Self-complementary hairpin strand, chemistry not given here, further chemistry not given here; listed as Homo sapiens) [compound 31]	HCoV-OC43	82
34 (GCUGAAUGGAAAAAACAUUGATTAAUGUUUUUUCCAUUCAGCUCTT; siRNA; Self-complementary hairpin strand, chemistry not given here, further chemistry not given here; listed as Homo sapiens) [compound 34]	HCoV-OC43	86
42 (CCCAGCGCCAAGGACAUCAAGUUCUUGAUGUCCUUGGCGCUGGGUU; siRNA; Self-complementary hairpin strand, chemistry not given here, further chemistry not given here; listed as Homo sapiens) [compound 42]	HCoV-OC43	85

Next substance, OC43 vRNA reduction siRNA and siGRP78 to be filled in.
In: Which measured OC43 vRNA reduction siRNA and siGRP78 value corresponds to 24 (GCAAAGAAAGAAGAAUCCGTTCGGAUUCUUCUUUCUUUGCTT; siRNA; Self-complementary hairpin strand, chemistry not given here, further chemistry not given here; listed as Homo sapiens) [compound 24] ?
Out: 94

====

- System: HBeAg
- measurement_context: 10 nM siRNA transfected into cells
Hi there, I'd appreciate the recorded HBeAg reduction HepG2.2.15 cells for every entry that follows.

substance	system_name	parameter	result
47 (UGGCCUUUUUGAUUAAAUUTTAAUUUAAUCAAAAAGGCCAAA; siRNA; Self-complementary hairpin strand, chemistry not given here, further chemistry not given here; listed as Homo sapiens) [compound 47]	HBeAg	HBeAg reduction HepG2.2.15 cells	38 ± 5%

Record HBeAg reduction HepG2.2.15 cells per entry; entries follow.
1. 23 (CUGGAUAACACUAAGUUUAUUUAAACUUAGUGUUAUCCAGUU; siRNA; Self-complementary hairpin strand, chemistry not given here, further chemistry not given here; listed as Homo sapiens) [compound 23]
2. 36 (CCUUUUUGAUUAAAUUCCUGCTTAGGAAUUUAAUCAAAAAGGCCTT; siRNA; Self-complementary hairpin strand, chemistry not given here, further chemistry not given here; listed as Homo sapiens) [compound 36]

Out:
1: 29.8 ± 3%; 2: 26 ± 5%

====

- System: HCoV-OC43
- assay_procedure: OC43 virion RNA, Branched DNA assay, infected HCT8 cells
- Format: cell-based, human coronavirus OC43
- measurement_context: 10 nM siRNA along with 10 nM of siRNA targeting GRP78, HCT8 cells
parameter: OC43 vRNA reduction siRNA and siGRP78

Below: 3 substances and their reported OC43 vRNA reduction siRNA and siGRP78.
substance	OC43 vRNA reduction siRNA and siGRP78
49 (AAACAUUGAAGACGUCAUUTTAAUGACGUCUUCAAUGUUUTT; siRNA; Self-complementary hairpin strand, chemistry not given here, further chemistry not given here; listed as Homo sapiens) [compound 49]	91 ± 3%
47 (UGGCCUUUUUGAUUAAAUUTTAAUUUAAUCAAAAAGGCCAAA; siRNA; Self-complementary hairpin strand, chemistry not given here, further chemistry not given here; listed as Homo sapiens) [compound 47]	89 ± 2%
27 (GGUCUUUUUGACUAAACCUCUTTAGGUUUAGUCAAAAAGACCAATT; siRNA; Self-complementary hairpin strand, chemistry not given here, further chemistry not given here; listed as Homo sapiens) [compound 27]	95 ± 2%

In: Which measured OC43 vRNA reduction siRNA and siGRP78 value corresponds to 45 (GGAAAAAACAUUGAAGACGUCUUGACGUCUUCAAUGUUUUUUCCUU; siRNA; Self-complementary hairpin strand, chemistry not given here, further chemistry not given here; listed as Homo sapiens) [compound 45] ?
Out: 89 ± 2%

====

Hi there, I'd appreciate the recorded OC43 vRNA reduction siRNA and siGRP78 for every entry that follows.
- System: HCoV-OC43
- assay_procedure: OC43 virion RNA, Branched DNA assay, infected HCT8 cells
- Assay type: cell-based, human coronavirus OC43
- measurement_context: 10 nM siRNA along with 10 nM of siRNA targeting GRP78, HCT8 cells
Numbers only, in %.

Below: 2 substances and their reported OC43 vRNA reduction siRNA and siGRP78.
substance	OC43 vRNA reduction siRNA and siGRP78, %
50 (CGACCGGCUCAACAAGGUUTTAACCUUGUUGAGCCGGUCGTC; siRNA; Self-complementary hairpin strand, chemistry not given here, further chemistry not given here; listed as Homo sapiens) [compound 50]	91
29 (UGUCUCCGAGCUCGCCUGCAUUUAUGCAGGCGAGCUCGGAGACAUU; siRNA; Self-complementary hairpin strand, chemistry not given here, further chemistry not given here; listed as Homo sapiens) [compound 29]	92

Record OC43 vRNA reduction siRNA and siGRP78 per entry; entries follow.
1. 39 (AGAGGAGAAGAAAGAUGAGAAUUUUCUCAUCUUUCUUCUCCUCUUU; siRNA; Self-complementary hairpin strand, chemistry not given here, further chemistry not given here; listed as Homo sapiens) [compound 39]
2. 40 (AGUCUGAAGAGUCAGAUGAUGUUCAUCAUCUGACUCUUCAGACUUU; siRNA; Self-complementary hairpin strand, chemistry not given here, further chemistry not given here; listed as Homo sapiens) [compound 40]

Out:
1. 86
2. 79

====

Hi there, I'd appreciate the recorded Target protein reduction in HepG2.2.15 cells for every entry that follows.
- Test system: RPLP1 protein
- assay_procedure: Target protein reduction by Western blot in HepG2.2.15 cells
- Assay type: cell-based, human
- measurement_context: 10 nM siRNA, 72 h
Answers are plain numbers, in %.

Below: 2 substances and their reported Target protein reduction in HepG2.2.15 cells.
substance	system_name	units	quantitative_result
33 (UUGGUCUUUUUGACUAAACCUUUAGGUUUAGUCAAAAAGACCAAUU; siRNA; Self-complementary hairpin strand, chemistry not given here, further chemistry not given here; listed as Homo sapiens) [compound 33]	RPLP1 protein	%	28
28 (UAUGGCCUCUGUCUCCGAGCUUUAGCUCGGAGACAGAGGCCAUAUU; siRNA; Self-complementary hairpin strand, chemistry not given here, further chemistry not given here; listed as Homo sapiens) [compound 28]	RPLP1 protein	%	58

Next substance, Target protein reduction in HepG2.2.15 cells to be filled in.
In: Which measured Target protein reduction in HepG2.2.15 cells value corresponds to 29 (UGUCUCCGAGCUCGCCUGCAUUUAUGCAGGCGAGCUCGGAGACAUU; siRNA; Self-complementary hairpin strand, chemistry not given here, further chemistry not given here; listed as Homo sapiens) [compound 29] ?
Out: 52
